src = ChEMBL document CHEMBL3817843

Here, each record is paired with measured Activity data.
Tested on: Left cardiac atrium
Experiment: Negative inotropic activity in potassium depolarized guinea pig left atrium assessed as reduction in developed tension at 10^-4 M after 30 mins
Assay type: functional, Cavia porcellus
Design: scale not given: the % may be the effect or the level left
VALUE KIND: Activity (%)

INSERT INTO results (compound, target_desc, units_symbol, assay_value) VALUES
  ('CC1=CSC(OC(C)C)(c2ccccc2)c2noc(=O)n21 (centres undefined)', 'Left cardiac atrium', '%', 82),
  ('CC1=CSC(OCC2CCCCC2)(c2ccccc2)c2noc(=O)n21 (centres undefined)', 'Left cardiac atrium', '%', 56),
  ('COc1ccc(C2(OCC3CCCCC3)SC=C(C)n3c2noc3=O)cc1 (centres undefined)', 'Left cardiac atrium', '%', 80),
  ('COc1ccc(C2(OCC(F)(F)F)Sc3ccccc3-n3c2noc3=O)cc1 (centres undefined)', 'Left cardiac atrium', '%', 82);

---

Here, each record is paired with measured half-life at 1 µM data.
Experiment: Half life in human liver microsomes assessed as CYP-mediated compound degradation at 1 uM by LC-MS analysis
VALUE KIND: half-life at 1 µM (min)

INSERT INTO results (compound, units_symbol, relation_sign, assay_value) VALUES
  ('CCOC1(c2ccccc2)SC=C(C)n2c1noc2=O (stereo unspecified)', 'min', '=', 20),
  ('COc1ccc(C2(OCC(F)(F)F)Sc3ccccc3-n3c2noc3=O)cc1 (stereo unspecified)', 'min', '=', 23),
  ('CCOC1(c2ccc(OC)cc2)SC=C(C)n2c1noc2=O (stereo unspecified)', 'min', '=', 6),
  ('CCOC1(c2ccc(Br)cc2)SC=C(C)n2c1noc2=O (stereo unspecified)', 'min', '=', 53),
  ('CCOC1(c2ccc(OC)cc2)Sc2ccccc2-n2c1noc2=O (stereo unspecified)', 'min', '=', 13),
  ('CC1=CSC(OCC(F)(F)F)(c2ccc(Br)cc2)c2noc(=O)n21 (stereo unspecified)', 'min', '>', 250);

---

Here, each record is paired with measured Activity data.
System: Right cardiac atrium
Assay: Negative chronotropic activity in potassium depolarized guinea pig right atrium assessed as reduction in atrial rate at 50 uM after 30 mins
Format: functional, Cavia porcellus
Parameters: scale not given: the % may be the effect or the level left
VALUE KIND: Activity (%)

INSERT INTO results (compound, assay_value) VALUES
  ('COc1ccccc1C1(OCC2CCCCC2)SC=C(C)n2c1noc2=O (stereo not drawn)', 22),
  ('COc1cccc(C2(O)SC=C(C)n3c2noc3=O)c1 (stereo not drawn)', 16),
  ('COc1cccc(C2(OC(C)C)SC=C(C)n3c2noc3=O)c1 (stereo not drawn)', 2),
  ('COc1ccc(C2(O)SC=C(C)n3c2noc3=O)cc1 (stereo not drawn)', 12),
  ('COc1ccc(C2(O)Sc3ccccc3-n3c2noc3=O)cc1 (stereo not drawn)', 26),
  ('CCOC1(c2ccccc2)Sc2ccccc2-n2c1noc2=O (stereo not drawn)', 7),
  ('CCOC1(c2cccc(OC)c2)SC=C(C)n2c1noc2=O (stereo not drawn)', 2),
  ('COc1ccc(C2(OC(C)C)SC=C(C)n3c2noc3=O)cc1 (stereo not drawn)', 14),
  ('CC1=CSC(O)(c2ccccc2)c2noc(=O)n21 (stereo not drawn)', 14),
  ('O=c1onc2n1-c1ccccc1SC2(O)c1ccccc1 (stereo not drawn)', 10),
  ('O=c1onc2n1C=CSC2(O)c1ccccc1 (stereo not drawn)', 14),
  ('CCOC1(c2ccc(OC)cc2)SC=C(C)n2c1noc2=O (stereo not drawn)', 3),
  ('COc1cccc(C2(OCC3CCCCC3)SC=C(C)n3c2noc3=O)c1 (stereo not drawn)', 4);

---

Tested on: Right cardiac atrium
Test: Negative chronotropic activity in potassium depolarized guinea pig right atrium assessed as reduction in atrial rate at 10^-4 M after 30 mins
Assay type: functional, Cavia porcellus
Design: scale not given: the % may be the effect or the level left
Lab note: compare Activity with 9%, writing True if less and False if equal or more.

INSERT INTO measurements (compound, target_desc, label_class) VALUES
  ('O=c1onc2n1-c1ccccc1SC2(OCC1CCCCC1)c1ccccc1 (centres undefined)', 'Right cardiac atrium', 'True'),
  ('CC1=CSC(OCC2CCCCC2)(c2ccccc2)c2noc(=O)n21 (centres undefined)', 'Right cardiac atrium', 'True'),
  ('O=c1onc2n1-c1ccccc1SC2(OCC(F)(F)F)c1ccccc1 (centres undefined)', 'Right cardiac atrium', 'False'),
  ('CC(C)OC1(c2ccccc2)Sc2ccccc2-n2c1noc2=O (centres undefined)', 'Right cardiac atrium', 'False'),
  ('COc1ccc(C2(OCC(F)(F)F)Sc3ccccc3-n3c2noc3=O)cc1 (centres undefined)', 'Right cardiac atrium', 'False'),
  ('CCOC1(c2ccc(OC)cc2)Sc2ccccc2-n2c1noc2=O (centres undefined)', 'Right cardiac atrium', 'False'),
  ('COc1ccc(C2(OCC3CCCCC3)SC=C(C)n3c2noc3=O)cc1 (centres undefined)', 'Right cardiac atrium', 'True'),
  ('CC1=CSC(OCC(F)(F)F)(c2ccccc2)c2noc(=O)n21 (centres undefined)', 'Right cardiac atrium', 'True');

---

This section lists IC50 readings for Cytochrome P450 1A2 (Homo sapiens).
VALUE KIND: IC50

INSERT INTO measurements (compound, value_kind, assay_value) VALUES
  ('CC1=CSC(OCC(F)(F)F)(c2ccc(Br)cc2)c2noc(=O)n21 (stereo not drawn)', 'IC50', '5 µM'),
  ('COc1ccc(C2(OCC(F)(F)F)Sc3ccccc3-n3c2noc3=O)cc1 (stereo not drawn)', 'IC50', '> 20 µM'),
  ('CCOC1(c2ccc(OC)cc2)Sc2ccccc2-n2c1noc2=O (stereo not drawn)', 'IC50', '> 20 µM');

---

Here, each record is paired with measured IC50 data.
Molecular target: Cytochrome P450 3A4 (Homo sapiens)
Sequence (P08684 whole entry): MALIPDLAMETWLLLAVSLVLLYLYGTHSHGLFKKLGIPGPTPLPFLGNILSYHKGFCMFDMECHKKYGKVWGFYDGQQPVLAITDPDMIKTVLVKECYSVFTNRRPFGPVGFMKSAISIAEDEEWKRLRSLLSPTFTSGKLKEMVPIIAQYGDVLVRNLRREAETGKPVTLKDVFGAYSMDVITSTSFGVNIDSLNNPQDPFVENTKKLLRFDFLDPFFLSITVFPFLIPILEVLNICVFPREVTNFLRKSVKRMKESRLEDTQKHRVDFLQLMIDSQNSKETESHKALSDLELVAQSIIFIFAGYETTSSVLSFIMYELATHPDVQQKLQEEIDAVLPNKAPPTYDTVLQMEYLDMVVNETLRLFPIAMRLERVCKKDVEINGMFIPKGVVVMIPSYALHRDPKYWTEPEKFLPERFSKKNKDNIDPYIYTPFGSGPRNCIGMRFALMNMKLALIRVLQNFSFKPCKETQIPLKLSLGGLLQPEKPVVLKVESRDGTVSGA
Experiment: Inhibition of CYP3A4 in human liver microsomes using testosterone as substrate after 5 mins by LC-MS analysis
VALUE KIND: IC50

INSERT INTO measurements (compound, assay_value) VALUES
  ('CC1=CSC(OCC(F)(F)F)(c2ccc(Br)cc2)c2noc(=O)n21 (stereo not drawn)', '> 20 µM'),
  ('CCOC1(c2ccccc2)Sc2ccccc2-n2c1noc2=O (stereo not drawn)', '> 20 µM'),
  ('CCOC1(c2ccccc2)SC=C(C)n2c1noc2=O (stereo not drawn)', '19.1 µM'),
  ('CCOC1(c2ccc(OC)cc2)Sc2ccccc2-n2c1noc2=O (stereo not drawn)', '> 20 µM'),
  ('O=c1onc2n1-c1ccccc1SC2(OCC(F)(F)F)c1ccc(Br)cc1 (stereo not drawn)', '> 20 µM'),
  ('COc1ccc(C2(OCC(F)(F)F)Sc3ccccc3-n3c2noc3=O)cc1 (stereo not drawn)', '> 20 µM'),
  ('CCOC1(c2ccc(Br)cc2)SC=C(C)n2c1noc2=O (stereo not drawn)', '19.2 µM'),
  ('CC1=CSC(OCC(F)(F)F)(c2ccccc2)c2noc(=O)n21 (stereo not drawn)', '> 20 µM');

---

Assay: in vitro
Conditions: human, liver microsomes
Description: Intrinsic clearance in human liver microsomes at 1 uM after 2 to 60 mins by LC-MS analysis in presence of NADPH
Binary call on microsomal CLint at 1 µM: Y from 80 µL/min/mg upward, N beneath that.

INSERT INTO assay_data (compound, label_class) VALUES
  ('COc1ccc(C2(OCC(F)(F)F)Sc3ccccc3-n3c2noc3=O)cc1 (stereo unspecified)', 'N'),
  ('CCOC1(c2ccc(OC)cc2)Sc2ccccc2-n2c1noc2=O (stereo unspecified)', 'Y'),
  ('CCOC1(c2ccc(Br)cc2)SC=C(C)n2c1noc2=O (stereo unspecified)', 'N'),
  ('CCOC1(c2ccc(OC)cc2)SC=C(C)n2c1noc2=O (stereo unspecified)', 'Y'),
  ('CCOC1(c2ccccc2)SC=C(C)n2c1noc2=O (stereo unspecified)', 'Y'),
  ('CC1=CSC(OCC(F)(F)F)(c2ccc(Br)cc2)c2noc(=O)n21 (stereo unspecified)', 'N');

---

pIC50: −log10 of the molar value.
This section lists pIC50 readings for Cytochrome P450 2D6 (Homo sapiens).
VALUE KIND: pIC50

INSERT INTO results (molecule, value_kind, relation_sign, assay_value) VALUES
  ('CC1=CSC(OCC(F)(F)F)(c2ccccc2)c2noc(=O)n21 (centres undefined)', 'pIC50', '=', 4.78),
  ('CCOC1(c2ccccc2)Sc2ccccc2-n2c1noc2=O (centres undefined)', 'pIC50', '<', 4.70),
  ('CC1=CSC(OCC(F)(F)F)(c2ccc(Br)cc2)c2noc(=O)n21 (centres undefined)', 'pIC50', '=', 5.15),
  ('CCOC1(c2ccc(OC)cc2)Sc2ccccc2-n2c1noc2=O (centres undefined)', 'pIC50', '<', 4.70);

---

Here, each record is paired with measured Activity data.
Test system: Aorta
Experiment: Vasorelaxant activity in potassium depolarized guinea pig aorta assessed as inhibition of calcium-induced contraction at 10^-4 M after 30 mins
Format: functional, Cavia porcellus
Parameters: scale not given: the % may be the effect or the level left
VALUE KIND: Activity (%)

INSERT INTO results (compound, value_kind, units_symbol, assay_value) VALUES
  ('CCOC1(c2ccccc2)SC=C(C)n2c1noc2=O (stereo not drawn)', 'Activity', '%', 32),
  ('CCOC1(c2ccc(OC)cc2)SC=C(C)n2c1noc2=O (stereo not drawn)', 'Activity', '%', 29),
  ('CC1=CSC(OC(C)C)(c2ccccc2)c2noc(=O)n21 (stereo not drawn)', 'Activity', '%', 39),
  ('COc1ccccc1C1(OCC2CCCCC2)SC=C(C)n2c1noc2=O (stereo not drawn)', 'Activity', '%', 17),
  ('O=c1onc2n1-c1ccccc1SC2(O)c1ccccc1 (stereo not drawn)', 'Activity', '%', 21),
  ('CCOC1(c2ccccc2)Sc2ccccc2-n2c1noc2=O (stereo not drawn)', 'Activity', '%', 14),
  ('CC1=CSC(OCC2CCCCC2)(c2ccccc2)c2noc(=O)n21 (stereo not drawn)', 'Activity', '%', 14),
  ('CCOC1(c2ccccc2OC)SC=C(C)n2c1noc2=O (stereo not drawn)', 'Activity', '%', 28),
  ('COc1cccc(C2(OC(C)C)SC=C(C)n3c2noc3=O)c1 (stereo not drawn)', 'Activity', '%', 36),
  ('COc1cccc(C2(OCC3CCCCC3)SC=C(C)n3c2noc3=O)c1 (stereo not drawn)', 'Activity', '%', 20),
  ('CCOC1(c2cccc(OC)c2)SC=C(C)n2c1noc2=O (stereo not drawn)', 'Activity', '%', 31),
  ('O=c1onc2n1-c1ccccc1SC2(OCC(F)(F)F)c1ccccc1 (stereo not drawn)', 'Activity', '%', 6),
  ('COc1ccc([C@@H]2Sc3ccccc3N(CCN(C)C)C(=O)[C@@H]2OC(C)=O)cc1', 'Activity', '%', 88);
